Details: in NMP, 293.15 K

>  <compound.structure>
CC(=O)Oc1ccccc1C(=O)Nc1ncc([N+](=O)[O-])s1

>  <solubility (mole fraction)>
0.098

$$$$

---

Settings: in ethyl acetate, 283.15 K
reported.metric: solubility (mole fraction)

>  <compound.structure>
CC(=O)Oc1ccccc1C(=O)Nc1ncc([N+](=O)[O-])s1

>  <numeric.value>
0.00229

$$$$

---

Settings: in NMP, 308.15 K

>  <compound.structure>
CC(=O)Oc1ccccc1C(=O)Nc1ncc([N+](=O)[O-])s1

>  <solubility (mole fraction)>
0.109

$$$$

---

Details: in NMP, 273.15 K

>  <compound.structure>
CC(=O)Oc1ccccc1C(=O)Nc1ncc([N+](=O)[O-])s1

>  <solubility (mole fraction)>
0.0878

$$$$

---

Conditions: in DMF, 288.15 K

>  <compound.structure>
CC(=O)Oc1ccccc1C(=O)Nc1ncc([N+](=O)[O-])s1

>  <solubility (mole fraction)>
0.0751

$$$$

---

Settings: in methanol, 313.15 K

>  <compound.structure>
CC(=O)Oc1ccccc1C(=O)Nc1ncc([N+](=O)[O-])s1

>  <solubility (mole fraction)>
0.000334

$$$$

---

Settings: in acetonitrile, 278.15 K

>  <compound.structure>
CC(=O)Oc1ccccc1C(=O)Nc1ncc([N+](=O)[O-])s1

>  <solubility (mole fraction)>
0.000924

$$$$

---

Details: in 2-butanone, 303.15 K
reported.metric: solubility (mole fraction)

>  <compound.structure>
CC(=O)Oc1ccccc1C(=O)Nc1ncc([N+](=O)[O-])s1

>  <reported.metric>
solubility (mole fraction)

>  <numeric.value>
0.0158

$$$$

---

Conditions: in n-propanol, 293.15 K

>  <compound.structure>
CC(=O)Oc1ccccc1C(=O)Nc1ncc([N+](=O)[O-])s1

>  <solubility (mole fraction)>
0.00029

$$$$

---

Settings: in 2-butanone, 293.15 K
reported.metric: solubility (mole fraction)

>  <compound.structure>
CC(=O)Oc1ccccc1C(=O)Nc1ncc([N+](=O)[O-])s1

>  <result>
0.0107

$$$$

---

Conditions: in 2-butanone, 288.15 K
reported.metric: solubility (mole fraction)

>  <compound.structure>
CC(=O)Oc1ccccc1C(=O)Nc1ncc([N+](=O)[O-])s1

>  <numeric.value>
0.00859

$$$$

---

Details: in ethyl acetate, 313.15 K

>  <compound.structure>
CC(=O)Oc1ccccc1C(=O)Nc1ncc([N+](=O)[O-])s1

>  <solubility (mole fraction)>
0.00399

$$$$

---

Details: in 1,4-dioxane, 303.15 K

>  <compound.structure>
CC(=O)Oc1ccccc1C(=O)Nc1ncc([N+](=O)[O-])s1

>  <solubility (mole fraction)>
0.0207

$$$$

---

Settings: in ethanol, 273.15 K
reported.metric: solubility (mole fraction)

>  <compound.structure>
CC(=O)Oc1ccccc1C(=O)Nc1ncc([N+](=O)[O-])s1

>  <reported.metric>
solubility (mole fraction)

>  <numeric.value>
0.000117

$$$$

---

Conditions: in methanol, 288.15 K

>  <compound.structure>
CC(=O)Oc1ccccc1C(=O)Nc1ncc([N+](=O)[O-])s1

>  <solubility (mole fraction)>
0.000177

$$$$

---

Conditions: in toluene, 313.15 K
reported.metric: solubility (mole fraction)

>  <compound.structure>
CC(=O)Oc1ccccc1C(=O)Nc1ncc([N+](=O)[O-])s1

>  <reported.metric>
solubility (mole fraction)

>  <numeric.value>
0.000291

$$$$
